assay_target: Glycogen synthase kinase-3 beta (Homo sapiens, UniProt P49841)
Sequence (P49841 whole entry): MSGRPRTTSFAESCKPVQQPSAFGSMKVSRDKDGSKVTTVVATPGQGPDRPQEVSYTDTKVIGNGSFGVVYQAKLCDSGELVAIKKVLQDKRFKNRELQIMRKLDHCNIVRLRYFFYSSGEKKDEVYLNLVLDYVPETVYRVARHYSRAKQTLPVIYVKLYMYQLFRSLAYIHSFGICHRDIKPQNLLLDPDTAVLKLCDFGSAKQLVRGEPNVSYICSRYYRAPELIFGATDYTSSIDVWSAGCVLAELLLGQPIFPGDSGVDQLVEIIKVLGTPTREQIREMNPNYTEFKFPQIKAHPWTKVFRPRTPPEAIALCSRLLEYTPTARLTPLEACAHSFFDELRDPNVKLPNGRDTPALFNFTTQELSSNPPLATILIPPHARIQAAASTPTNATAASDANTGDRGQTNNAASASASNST
attribute_measured: IC50

[ask] Name the recorded IC50 of the item C[C@H]1CC(=O)Nc2cc(C(=O)NCCC3CC3)ccc2N1C(=O)N1CC2CC2C1 (stereo partly specified) in your answer.
[reply] > 20 µM

---

assay_overview: Lipophilicity, log D of the compound at pH 7.5
Type: physicochemical
test_context: buffer
attribute_measured: logD

Past entries and their recorded results:
• C[C@H]1CC(=O)Nc2cc(C(=O)NCCC3CC3)ccc2N1C(=O)NC1CCNCC1 = 1.3
• C[C@H]1CC(=O)Nc2cc(C(=O)NCCC3CC3)ccc2N1C(=O)N1CCN(CCO)CC1 = 1.5
• CCN1CCN(C(=O)N2c3ccc(C(=O)NCCC4CC4)cc3NC(=O)C[C@@H]2C)CC1 = 1.7

State the recorded logD for every item in the following list.
1. C[C@H]1CC(=O)Nc2cc(C(=O)NCCC3CC3)ccc2N1C(=O)N1CCN(CC(F)(F)F)CC1
2. C[C@@H]1CC(=O)Nc2cc(C(=O)NCCC3CC3)ccc2N1C(=O)N1CCC(N)CC1
3. CCN1CCC(N(C)C(=O)N2c3ccc(C(=O)NCCC4CC4)cc3NC(=O)C[C@@H]2C)CC1
4. C[C@H]1CC(=O)Nc2cc(C(=O)NCCC3CC3)ccc2N1C(=O)N1CC2CC2C1 (some centres undefined)
5. C[C@H]1CC(=O)Nc2cc(C(=O)NCCC3CC3)ccc2N1C(=O)N1CCC(NCC(F)(F)F)CC1
6. C[C@H]1CC(=O)Nc2cc(C(=O)NCCC3CC3)ccc2N1C(=O)N1CCC(F)(F)CC1
7. C[C@H]1CC(=O)Nc2cc(C(=O)NCCC3CC3)ccc2N1C(=O)N1CCC(F)(F)C1

[reply]
1. 2.2
2. 1.4
3. 1.5
4. 1.9
5. 2.2
6. 2.1
7. 2

State the recorded logD for every item in the following list.
1. CC1CC(=O)Nc2cc(C(=O)NCCC3CC3)ccc2N1C(=O)c1ccccc1 (racemic)
2. C[C@H]1CC(=O)Nc2cc(C(=O)NCCC3CC3)ccc2N1C(=O)N1CCNCC1

[reply]
1: 2.1; 2: 1.4
